Consider the following compounds; for each one, report its kinase still bound, per cent of control.
# tested-on: JAK1 JH1 catalytic (human) (UniProt P23458)
# Sequence (P23458 whole entry, looked up): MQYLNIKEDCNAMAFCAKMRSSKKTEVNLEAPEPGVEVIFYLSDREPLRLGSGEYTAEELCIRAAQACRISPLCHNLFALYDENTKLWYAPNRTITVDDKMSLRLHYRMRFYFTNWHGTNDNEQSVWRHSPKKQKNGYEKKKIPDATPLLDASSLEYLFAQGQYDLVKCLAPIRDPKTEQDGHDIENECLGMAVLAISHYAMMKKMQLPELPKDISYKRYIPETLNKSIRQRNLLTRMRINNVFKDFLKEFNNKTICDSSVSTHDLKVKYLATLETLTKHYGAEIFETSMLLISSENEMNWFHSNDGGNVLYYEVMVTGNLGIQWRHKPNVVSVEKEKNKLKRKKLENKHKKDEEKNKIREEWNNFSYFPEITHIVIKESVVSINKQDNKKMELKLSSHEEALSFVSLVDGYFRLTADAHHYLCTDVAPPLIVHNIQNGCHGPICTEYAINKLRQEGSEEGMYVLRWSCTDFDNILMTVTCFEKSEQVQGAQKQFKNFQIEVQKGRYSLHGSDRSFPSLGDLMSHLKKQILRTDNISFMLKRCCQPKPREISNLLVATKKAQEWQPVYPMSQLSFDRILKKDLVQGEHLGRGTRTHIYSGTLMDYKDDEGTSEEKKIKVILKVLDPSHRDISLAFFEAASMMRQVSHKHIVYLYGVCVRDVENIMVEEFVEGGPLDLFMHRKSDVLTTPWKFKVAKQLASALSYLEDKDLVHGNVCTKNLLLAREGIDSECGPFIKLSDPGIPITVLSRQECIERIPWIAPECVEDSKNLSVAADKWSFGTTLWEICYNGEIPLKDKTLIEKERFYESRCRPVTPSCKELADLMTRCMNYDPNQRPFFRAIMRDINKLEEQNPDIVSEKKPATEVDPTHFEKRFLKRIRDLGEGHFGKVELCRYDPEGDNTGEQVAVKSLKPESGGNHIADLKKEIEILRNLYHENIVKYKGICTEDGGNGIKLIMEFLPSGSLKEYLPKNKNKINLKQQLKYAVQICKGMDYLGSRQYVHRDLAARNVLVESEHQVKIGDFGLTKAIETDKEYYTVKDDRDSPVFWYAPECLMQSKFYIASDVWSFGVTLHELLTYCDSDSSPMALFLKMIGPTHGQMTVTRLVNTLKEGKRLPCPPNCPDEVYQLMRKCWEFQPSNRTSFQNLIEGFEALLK
# procedure-details: KINOMEscan competition binding
# condition-label: compound 10.0 µM
Output spec: scalar in %, unitless text.

Entry under test: `Cc1cnc(-c2cnc(NCCNc3ccc(C#N)cn3)nc2-c2ccc(Cl)cc2Cl)[nH]1` . Its kinase still bound, per cent of control was 94

get_value(item= `Cn1cc(C2=C(c3ccc(Cl)cc3Cl)C(=O)NC2=O)c2ccccc21` , readout=kinase still bound, per cent of control) returns 90

Consider `COc1ccc(CNC(=O)Nc2ncc([N+](=O)[O-])s2)cc1` . Its measured kinase still bound, per cent of control is 76

kinase still bound, per cent of control measured on `O=C1Nc2cc(Br)ccc2/C1=C1/Nc2ccccc2/C1=N\O` = 42
